A collection of compounds and their measured viability at 500 µM
tested on: A549 cells; assay: Cytotoxicity against A549 cells, Alamar Blue; format: cell-based; details: Homo sapiens, A549, 65 h; Supplementary Table 1; compound 0.5 mM; percentage of controls (n=1)

compound	viability at 500 µM
OCc1ccc(N2CCCC2)nc1 [compound 437, [6‐(1‐pyrrolidinyl)‐3‐pyridinyl]methanol]	44.3%
OCc1ccc2c(c1)OCO2	92.1%
Nc1cc(F)cc(F)c1	132%
OCc1ccc(Oc2ccccc2)cc1	70.7%
Nc1ccccc1OC(F)(F)F	97.9%
Cc1nc(C#N)cs1	89.7%

* * *

// reported viability at 500 µM for each item listed
test system: A549 cells; assay: Cytotoxicity against A549 cells, Alamar Blue; assay type: cell-based; settings: Homo sapiens, A549, 65 h; Supplementary Table 1; compound 0.5 mM; percentage of controls (n=1)

compound	viability at 500 µM [%]
O=C(O)c1ccc(C(F)(F)F)cc1 [compound 539, 4‐(trifluoromethyl)benzoic acid]	104
Cc1nc2ccc(N)cc2s1 [compound 302, 2‐methyl‐1,3‐benzothiazol‐6‐ylamine]	62.3
COC(=O)c1sccc1N [compound 241, methyl 3‐aminothiophene‐2‐carboxylate]	108

* * *

# viability at 500 µM listing for each entry below
system: A549 cells; test: Cytotoxicity against A549 cells, Alamar Blue; format: cell-based; conditions: Homo sapiens, A549, 65 h, Supplementary Table 1; compound 0.5 mM; percentage of controls (n=1)
reported endpoint: viability at 500 µM (%)

1. COc1ccc(CC#N)cc1 88.7
2. O=C(O)c1cc2sccc2[nH]1 136
3. Oc1ncnc2cccc(F)c12 63.7

* * *

system: A549 cells; test: Cytotoxicity against A549 cells, Alamar Blue; format: cell-based; details: Homo sapiens, A549, 65 h; Supplementary Table 1; compound 0.5 mM; percentage of controls (n=1)
reported endpoint: viability at 500 µM (%)

1) CCCc1ccc(C(C)=O)cc1 90.6
2) Cc1nccc(-c2cccc(N)c2)n1 92.6
3) Cn1cccc1C(=O)O 70.2

* * *

target: TbINO1 (Trypanosoma brucei brucei, UniProt Q5QQ46); test: biochemical; format: binding; settings: read-out: Tb Ino1 Tm Shift [˚C]
Sequence (Q5QQ46 whole entry): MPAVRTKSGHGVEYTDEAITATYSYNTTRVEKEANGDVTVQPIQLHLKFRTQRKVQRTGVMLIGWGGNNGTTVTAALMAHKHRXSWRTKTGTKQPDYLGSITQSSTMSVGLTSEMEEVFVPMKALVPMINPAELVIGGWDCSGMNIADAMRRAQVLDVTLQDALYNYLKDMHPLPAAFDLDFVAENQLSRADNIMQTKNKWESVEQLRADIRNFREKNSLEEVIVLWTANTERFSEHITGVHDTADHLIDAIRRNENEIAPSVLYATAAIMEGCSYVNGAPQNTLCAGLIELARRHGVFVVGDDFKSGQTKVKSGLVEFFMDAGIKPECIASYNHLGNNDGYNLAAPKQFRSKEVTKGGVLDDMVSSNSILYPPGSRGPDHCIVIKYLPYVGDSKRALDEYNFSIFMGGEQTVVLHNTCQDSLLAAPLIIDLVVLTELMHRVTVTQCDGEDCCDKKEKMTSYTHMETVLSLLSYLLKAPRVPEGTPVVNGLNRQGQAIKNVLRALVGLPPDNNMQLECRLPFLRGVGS
Form field: ΔTm at 1000 µM (one value per entry).

compound	measurement units	ΔTm at 1000 µM
Cc1cc(C(=O)O)c(C)o1	°C	0.62
O=c1c2ccccc2oc2ncccc12 [compound 600, 5H‐chromeno[2,3‐b]pyridin‐5‐one]	°C	0.62
NC(=S)c1ccsc1 [compound 148, thiophene‐3‐carbothioamide]	°C	0.78
Cc1ccsc1CN	°C	0.43
O=C1CCOCC1 [compound 12, tetrahydro‐4H‐pyran‐4‐one]	°C	0.23
O=C(O)c1ccc(-c2ccsc2)cc1	°C	0.25
CCc1ccc(CNC)cc1	°C	0.14
C#Cc1ccc(OC)cc1	°C	0.48
O=C(O)c1c[nH]c2ccccc12	°C	0.01
CNCc1cccc(-c2cccnc2)c1	°C	0.07

* * *

tested on: A549 cells; assay: Cytotoxicity against A549 cells, Alamar Blue; assay type: cell-based; details: Homo sapiens, A549, 65 h; Supplementary Table 1; compound 0.5 mM; percentage of controls (n=1)
Counter-ions that a name gives are not always drawn.
The entries below are paired with their reported viability at 500 µM.

molecule	target or system	viability at 500 µM
Cc1ccccc1S(N)(=O)=O [compound 355, 2‐methylbenzene‐1‐sulfonamide]	A549 cells	87.9%
Cc1ccc(-c2cnco2)cc1 [compound 259, 5‐(4‐methylphenyl)‐1,3‐oxazole]	A549 cells	88.1%
Cc1cc(C(=O)O)c(-c2ccccc2)o1 [compound 635, 5‐methyl‐2‐phenyl‐3‐furoic acid]	A549 cells	90.1%
Nc1cccc(-c2cccs2)c1 [compound 403, 3‐(2‐thienyl)aniline]	A549 cells	52.3%
N#CCCNCc1ccco1 [compound 189, 3‐[(2‐furylmethyl)amino]propanenitrile]	A549 cells	84.4%
c1cnc2c(n1)CCCC2 [compound 111, 5,6,7,8‐tetrahydroquinoxaline]	A549 cells	96.1%
CCCc1ccc(NC(C)=O)cc1 [compound 426, N1‐(4‐propylphenyl)acetamide]	A549 cells	71.7%
Oc1ccc2c(c1)OCO2 [compound 124, 1,3-benzodioxol-5-ol]	A549 cells	53.6%
O=C(O)c1cc2cccnc2s1 [compound 445, thieno[2,3‐b]pyridine‐2‐carboxylic acid]	A549 cells	45.2%
O=C(O)c1ccnc2ccccc12 [compound 368, quinoline‐4‐carboxylic acid]	A549 cells	90.3%
O=C(O)CC12CC3CC(CC(C3)C1)C2 [compound 588, 2‐(1‐adamantyl)acetic acid]	A549 cells	85.4%
N#CCCn1cccc1 [compound 50, 3‐(1H‐pyrrol‐1‐yl)propanenitrile]	A549 cells	140%
CC(=O)Nc1ccc(Cl)cc1C [compound 473, 4‐chloro‐2‐methylacetanilide]	A549 cells	76.1%
COC(=O)c1ccc(F)cc1Cl [compound 531, methyl 2‐chloro‐4‐fluorobenzoate]	A549 cells	75.7%
CC(C)(C)c1cccc(N)c1 [compound 179, 3‐(tert‐butyl)aniline]	A549 cells	77.9%
ON=C1CN2CCC1CC2 [compound 416, quinuclidin‐3‐one oxime hydrochloride]	A549 cells	109%
CC(=O)c1ccc(C#N)s1 [compound 198, 5‐acetylthiophene‐2‐carbonitrile]	A549 cells	61.2%
O=C1CCC(C(F)(F)F)CC1 [compound 317, 4‐(trifluoromethyl)cyclohexan‐1‐one]	A549 cells	90.5%
Cc1cccc2c1NCCC2 [compound 166, 8‐methyl‐1,2,3,4‐tetrahydroquinoline]	A549 cells	76%
Cc1cc(O)nc2ccccc12 [compound 258, 4‐methyl‐2‐quinolinol]	A549 cells	90.7%
OCc1cccc2[nH]ccc12 [compound 163, 1H-indol-4-ylmethanol]	A549 cells	47%
Cc1ccc(O)c(C)n1 [compound 64, 2,6‐dimethylpyridin‐3‐ol]	A549 cells	80.6%
Nc1ccc2c(c1)C(=O)OC2 [compound 175, 6‐amino‐1,3‐dihydroisobenzofuran‐1‐one]	A549 cells	79.5%
CCOC(=O)c1csc(C)n1 [compound 356]	A549 cells	79.8%
Oc1ccc(-n2ccnc2)cc1 [compound 266, 4‐(1H‐imidazol‐1‐yl)phenol]	A549 cells	108%

* * *

tested on: A549 cells; assay: Cytotoxicity against A549 cells, Alamar Blue; type: cell-based; settings: Supplementary Table 1; compound 0.5 mM; percentage of controls (n=1)

molecule	A549 Cells Alamar Blue
O=C(O)C1CC2CC1CCC2O (stereo not shown)	127 percentage of controls
Cc1nc(-c2ccc(CO)cc2)cs1	103.8 percentage of controls
Cn1nc(CO)cc1-c1cccs1	63.4 percentage of controls
Cn1nc(-c2ccccc2)cc1CO	60.7 percentage of controls
OCc1cc(F)cc2c1OCOC2	78.9 percentage of controls
NCc1cccc(CN2CCCC2)c1	108.7 percentage of controls
Cc1nn(C)c(C)c1CN	87.7 percentage of controls
Cc1ccc(C#N)c(=O)[nH]1	118.7 percentage of controls
Cc1cc(C(=O)O)c2cc(F)ccc2n1	146.9 percentage of controls
Cn1ncc(CO)c1-c1ccccc1	109.5 percentage of controls
CC1=NNC(=O)CC1	68.2 percentage of controls
OCc1ccc(Cn2cccn2)cc1	94 percentage of controls
CC(=O)c1sc(C)nc1C	62 percentage of controls
OCc1scc2c1OCCO2	93.7 percentage of controls
Cc1ccc(C)c(C(O)C(=O)O)c1 (stereo not shown)	60.8 percentage of controls
OCC1CNc2ccccc2O1 (stereo not shown)	70.8 percentage of controls
CNCc1nn(C)c2ccccc12	91.7 percentage of controls
Cc1nc2ccccn2c1CO	79.7 percentage of controls
Cc1cc(C(F)(F)F)c(C#N)cn1	107.7 percentage of controls

* * *

target: TbINO1 (Trypanosoma brucei brucei, UniProt Q5QQ46); test: biochemical; type: binding; details: read-out: Tb Ino1 Tm Shift [˚C]
Classify as follows. Reported ΔTm at 1000 µM greater than or equal to 0.2 °C: class 1. Reported ΔTm at 1000 µM below: class 0.

molecule	class label
COC(=O)c1cscc1N [compound 244, methyl 4‐aminothiophene‐3‐carboxylate]	class 1
CC(=O)c1cc(Cl)sc1Cl [compound 590, 1‐(2,5‐dichloro‐3‐thienyl)ethan‐1‐one]	class 1
CNc1ccc(F)cc1F [compound 144, N1‐methyl‐2,4‐difluoroaniline]	class 1
N#Cc1ccc(Oc2ccccn2)cc1 [compound 596, 4‐(pyridin‐2‐yloxy)benzonitrile]	class 1
c1ccc2c(c1)CCOC2 [compound 110, 3,4‐dihydro‐1H‐benzo[c]pyran]	class 1
COC(=O)c1c[nH]c2ccccc12 [compound 392, methyl 1H‐indole‐3‐carboxylate]	class 1
OCc1nccs1 [compound 38, 1,3‐thiazol‐2‐ylmethanol]	class 0
CC(=O)N1CCC(C#N)CC1 [compound 207, 1‐acetylpiperidine‐4‐carbonitrile]	class 0
CC1Cc2ccccc2C1=O (stereo not shown) [compound 157, 2‐methylindan‐1‐one]	class 0
N#Cc1ccccc1OC(F)(F)F [compound 509, 2‐(trifluoromethoxy)benzonitrile]	class 0
COC(=O)Cc1ccsc1 [compound 238, methyl 2‐(3‐thienyl)acetate]	class 1
N#Cc1c(N)cccc1Cl [compound 210, 2‐amino‐6‐chlorobenzonitrile]	class 0
OCc1cccnc1N1CCCC1 [compound 440, [2‐(1‐pyrrolidinyl)‐3‐pyridinyl]methanol]	class 1
OCc1ccc(-c2ccco2)s1 [compound 458, [5‐(2‐furyl)thien‐2‐yl]methanol]	class 1
CC(=O)NCc1cccnc1 [compound 188, N1‐(3‐pyridylmethyl)acetamide]	class 0
NCc1ccccc1N1CCOCC1 [compound 571, 2‐morpholinobenzylamine]	class 0
O=C(O)c1cnccc1C(F)(F)F [compound 553, 4‐(trifluoromethyl)nicotinic acid]	class 1
N#Cc1cccc(-n2ccnc2)c1 [compound 339, 3‐(1H‐imidazol‐1‐yl)benzonitrile]	class 1
Nc1ccccc1OC(F)(F)F [compound 418, 2‐(trifluoromethoxy)aniline]	class 0
COC(=O)c1ccc(C)c(Cl)c1 [compound 484, methyl 3‐chloro‐4‐methylbenzoate]	class 0
Cc1ccc2cc(C(=O)O)ccc2n1 [compound 510, 2‐methyl‐6‐quinolinecarboxylic acid]	class 0
OCc1cccc(N2CCCC2)c1 [compound 428, (3‐pyrrolidin‐1‐ylphenyl)methanol]	class 1
Nc1ccc(CO)cn1 [compound 66, (6‐amino‐3‐pyridinyl)methanol]	class 1
O=C(O)c1cccc(-c2ccncc2)c1 [compound 614, 3‐pyrid‐4‐ylbenzoic acid]	class 1
Clc1ccc(Cl)s1 [compound 211, 2,5‐dichlorothiophene]	class 0
OCc1ccc(N2CCCC2)cc1 [compound 427, [4‐(1‐pyrrolidinyl)phenyl]methanol]	class 1
Cc1csc2ncnc(Cl)c12 [compound 486, 4‐chloro‐5‐methylthieno[2,3‐d]pyrimidine]	class 1
Nc1cc(F)ccc1-n1ccnc1 [compound 420, 5‐fluoro‐2‐(1H‐imidazol‐1‐yl)aniline]	class 1
O=C(O)c1ccc2ncsc2c1 [compound 444, 1,3‐benzothiazole‐6‐carboxylic acid]	class 1
O=C(O)CCc1c[nH]c2ccccc12 [compound 533, 3‐(1H‐indol‐3‐yl)propanoic acid]	class 1
OCc1ccc(-c2cccs2)cc1 [compound 544, (4‐thien‐2‐ylphenyl)methanol]	class 0
